tested on: ZFN7263 linker TQRPQIPPKP (artificial); assay: cell_activity; conditions: yeast, paired with 7264 ZFN
Mark each entry Condition met if its activity (normalized MEL-1) sits below 0.4, and Condition not met for all others.

Look over these answered cases.
ACTCTGATGGAAG (double strand) [7263 yeast half-site gap A]: Condition not met
ACTCTGTGGAAG (double strand) [7263 yeast half-site 0-bp gap]: Condition met
ACTCTGTTGGAAG (double strand) [7263 yeast half-site gap T]: Condition not met
ACTCTGCTGGAAG (double strand) [7263 yeast half-site gap C]: Condition not met
ACTCTGACTGGAAG (double strand) [7263 yeast half-site gap AC]: Condition met

In the following, a different sequence is considered.
Say whether its activity (normalized MEL-1) is strictly beneath 0.4. Entry: ACTCTGGTGGAAG (double strand) [7263 yeast half-site gap G]
Condition not met

---

tested on: ZFP8196 linker 1d (artificial)
Some sequences, each annotated with its measured binding signal (normalized ELISA).
Could you keep your reply to the number by itself?

As a guide, the following entries are already answered.
TTAGATAAACTGACCAAAAGGCTATC (double strand) [8196 target gap AC]: 0.01
TTAGATAAACTGTGCAAAAGGCTATC (double strand) [8196 target gap TG]: 0.01
TTAGATAAACTGGCAAAAGGCTATC (double strand) [8196 target gap G]: 0.52
TTAGATAAACTGACAAAAGGCTATC (double strand) [8196 target gap A]: 0.23

API: the following record is the query input.
Find binding signal (normalized ELISA) (ZFP8196 linker 1d (artificial)) for the entry TTAGATAAACTGCCAAAAGGCTATC (double strand) [8196 target gap C]
0.09

---

Some sequences, each annotated with its measured activity (normalized MEL-1).
tested on: ZFN7264 (host, center linker TGSQKP) (synthetic); assay: cell_activity; settings: yeast, partner ZFN7263; host on 0-bp gap = 1.00; host data same as Table 9

AAAGCGTTGCTCCG (double strand) [7264 yeast half-site gap TT]: 0.09
AAAGCGGGCTCCG (double strand) [7264 yeast half-site gap G]: 0.09
AAAGCGCTGCTCCG (double strand) [7264 yeast half-site gap CT]: 0.08
AAAGCGCGCTCCG (double strand) [7264 yeast half-site gap C]: 0.05
AAAGCGAGCTCCG (double strand) [7264 yeast half-site gap A]: 0.05

API: the following record is the query input.
Can you share its activity (normalized MEL-1)? I mean this sequence: AAAGCGTAGCTCCG (double strand) [7264 yeast half-site gap TA]
0.02

---

Consider sequences characterized by their binding signal (normalized ELISA) with ZFP8196 linker TGEGGKP (artificial).
Could you keep your reply to the number by itself?

As a guide, the following entries are already answered.
TTAGATAAACTGTCCAAAAGGCTATC (double strand) [8196 target gap TC]: 0
TTAGATAAACTGACCAAAAGGCTATC (double strand) [8196 target gap AC]: 0
TTAGATAAACTGGCAAAAGGCTATC (double strand) [8196 target gap G]: 0.03

Can you share its binding signal (normalized ELISA)? I mean this sequence: TTAGATAAACTGCCAAAAGGCTATC (double strand) [8196 target gap C]
0

Can you share its binding signal (normalized ELISA)? I mean this sequence: TTAGATAAACTGACAAAAGGCTATC (double strand) [8196 target gap A]
0

Can you share its binding signal (normalized ELISA)? I mean this sequence: TTAGATAAACTGTGCAAAAGGCTATC (double strand) [8196 target gap TG]
0
